Molecular target: T1, human BCMA expressed on cell surface (H929, OPM-2, CHOK1-hBCMA cells) (human, UniProt Q02223 1-184)
T1 construct: also called cell-surface BCMA; BCMA on cell surface
T1 sequence: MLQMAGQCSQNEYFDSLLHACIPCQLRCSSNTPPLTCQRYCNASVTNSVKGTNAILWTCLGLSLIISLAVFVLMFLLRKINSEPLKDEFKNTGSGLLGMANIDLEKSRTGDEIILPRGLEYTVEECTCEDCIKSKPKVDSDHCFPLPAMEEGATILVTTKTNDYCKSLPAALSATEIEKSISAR
Assay: FACS on H929 cells
Listing of entries alongside the reported MFI.
property.label: MFI

{"binder": "mutant antibody 5A6 LM5 (antibody, V domains shown, Light chain CDR mutant of 5A6 (IgG1); heavy chain as 5A6) VH: EVQLLESGGGLVQPGGSLRLSCAASGFTFSNYGVHWVRQAPGKGLEWVSYISYSGGTYYNPSLKSRFTISRDNSKNTLYLQMNSLRAEDTAVYYCARDSDDFGFDYWGQGTLVTVSS VL: QSVLTQPPSASGTPGQRVTISCQGESLRSYYVNWYQQLPGTAPKLLIYDHSKRPTGVPDRFSGSKSGTSASLAISGLRSEDEADYYCQSYESSTVVFGGGTKLTVLG", "measurement": 81.4}
{"binder": "anti-BCMA IgG antibody 5D5 (antibody, V domains shown, also called 5D5 WT; 5D5 antibody) VH: EVQLLESGGGLVQPGGSLRLSCAASGFTFSDYGLSWVRQAPGKGLEWVSLIDSSGSSTFYADSVKGRFTISRDNSKNTLYLQMNSLRAEDTAVYYCAKEHGLFDSWGQGTLVTVSS VL: EIVLTQSPGTLSLSPGERATLSCKASQDIDDDINWYQQKPGQAPRLLIYDASLRATGIPDRFSGSGSGTDFTLTISRLEPEDFAVYYCQQSLRTPITFGQGTKLEIKR", "measurement": 36.4}
{"binder": "mutant antibody 5A6 LM2 (antibody, V domains shown, Light chain CDR mutant of 5A6 (IgG1); heavy chain as 5A6) VH: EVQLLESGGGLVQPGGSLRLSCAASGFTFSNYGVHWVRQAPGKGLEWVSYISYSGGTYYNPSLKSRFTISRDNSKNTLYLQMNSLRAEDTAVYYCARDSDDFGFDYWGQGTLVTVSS VL: QSVLTQPPSASGTPGQRVTISCQGDALRSYYVNWYQQLPGTAPKLLIYDHSKRPTGVPDRFSGSKSGTSASLAISGLRSEDEADYYCQSYDSSTVVFGGGTKLTVLG", "measurement": 66.7}
